test system: fibroblast cell culture; assay: Monomer cytotoxicity, Alamar Blue Assay in fibroblast cell culture; conditions: monomer concentration at which resorufin production was reduced to 50% of control, n=3
Each item that follows carries a reported IC50 [mM] (TC50 values of various monomers).
property_measured: IC50 [mM] (TC50 values of various monomers) (mM)

>  <compound>
C=CC(=O)OCCOCCOCCOCCOC(=O)C=C [TTEGDAc, Tetra(ethylene glycol) diacrylate]

>  <display_unit>
mM

>  <inequality_symbol>
<

>  <endpoint_value>
0.16

$$$$
>  <compound>
C=C(C)C(=O)OCCOCCOCCOCCOC(=O)C(=C)C [TTEGDMA, Tetra(ethylene glycol) dimethacrylate]

>  <display_unit>
mM

>  <inequality_symbol>
<

>  <endpoint_value>
0.16

$$$$
>  <compound>
C=COC(=O)CCCCC(=O)OC=C

>  <display_unit>
mM

>  <inequality_symbol>
=

>  <endpoint_value>
10

$$$$
>  <compound>
O=C(CCS)OCC(COC(=O)CCS)(COC(=O)CCS)COC(=O)CCS

>  <display_unit>
mM

>  <inequality_symbol>
=

>  <endpoint_value>
10

$$$$
>  <compound>
C=COC(=O)COCCOCCOCC(=O)OC=C

>  <display_unit>
mM

>  <inequality_symbol>
=

>  <endpoint_value>
2.5

$$$$
